conditions: 323.15 K; 81.5 kPa; Liquid; Vibrating tube method
metric.name: mass density (kg/m3)

INSERT INTO assay_data (structure_notation, metric_name, observed_measurement) VALUES
  ('c1ccccc1', 'mass density', 846.62),
  ('O=[N+]([O-])c1ccccc1', 'mass density', 1173.27),
  ('Clc1ccccc1', 'mass density', 1073.96),
  ('Brc1ccccc1', 'mass density', 1454.85),
  ('ClCCCl', 'mass density', 1208.61);

----------
Each record here notes measured mass density.
conditions: 313.15 K; 81.5 kPa; Liquid; Vibrating tube method
metric.name: mass density (kg/m3)

INSERT INTO results (structure_notation, metric_name, observed_measurement) VALUES
  ('O=[N+]([O-])c1ccccc1', 'mass density', 1183.21),
  ('ClCCCl', 'mass density', 1223.53),
  ('c1ccccc1', 'mass density', 857.44),
  ('Clc1ccccc1', 'mass density', 1084.86),
  ('Brc1ccccc1', 'mass density', 1468.41);
